target-desc: PARP7 (Homo sapiens)
Construct: purchased BPS 80527
Sequence (Q7Z3E1 1-657): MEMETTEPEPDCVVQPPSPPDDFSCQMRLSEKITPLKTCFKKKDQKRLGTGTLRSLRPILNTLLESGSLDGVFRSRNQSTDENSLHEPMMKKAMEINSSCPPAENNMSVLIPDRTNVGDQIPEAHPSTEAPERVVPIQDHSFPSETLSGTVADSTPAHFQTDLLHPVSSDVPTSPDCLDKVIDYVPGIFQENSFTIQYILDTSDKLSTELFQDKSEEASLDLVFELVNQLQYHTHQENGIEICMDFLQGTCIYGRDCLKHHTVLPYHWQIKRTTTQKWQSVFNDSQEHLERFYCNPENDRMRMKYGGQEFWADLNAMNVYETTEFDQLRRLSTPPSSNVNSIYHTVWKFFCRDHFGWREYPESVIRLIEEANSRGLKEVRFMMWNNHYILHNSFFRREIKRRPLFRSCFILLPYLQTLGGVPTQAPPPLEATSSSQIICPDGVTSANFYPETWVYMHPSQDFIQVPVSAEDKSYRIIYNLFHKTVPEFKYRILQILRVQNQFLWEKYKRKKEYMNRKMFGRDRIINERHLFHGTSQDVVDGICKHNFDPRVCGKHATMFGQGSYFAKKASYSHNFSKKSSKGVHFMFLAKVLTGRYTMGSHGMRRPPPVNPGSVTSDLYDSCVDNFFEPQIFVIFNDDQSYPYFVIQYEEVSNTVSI
assay-explanation: Inhibition of the compound on PARP7 protein activity (ADP-ribosylation, chemiluminescence)
Type: biochemical
condition-description: Histone H1 coated plate, Biotin-Labeled NAD+, 2 h at room temperature, chemiluminescence; read-out: PARP7 activity inhibition IC50
pIC50: −log10 of the molar value.

| molecule | target-desc | pIC50 |
| --- | --- | --- |
| O=C(NCCCC(Nc1cn[nH]c(=O)c1C(F)(F)F)C(=O)N1CCCC1)c1ccc(-c2ncc(C(F)(F)F)s2)cc1 (centres unmarked) [Example 86] | PARP7 (Homo sapiens) | > 8.52 |
| Cc1c(CCC(=O)Nc2ccc(-c3ncc(C(F)(F)F)cn3)cn2)c[nH]c(=O)c1C(F)(F)F [Example 13] | PARP7 (Homo sapiens) | > 8.52 |
| O=C(CCc1c[nH]c(=O)c2ccccc12)Nc1ccc(-c2ncc(C(F)(F)F)cn2)cc1 [Example 12] | PARP7 (Homo sapiens) | 8.00 to 8.52 |
| CC(CCCNC(=O)c1ccc(-c2ncc(CC3CC3)s2)cc1)Nc1cn[nH]c(=O)c1C(F)(F)F (centres unmarked) [Example 44] | PARP7 (Homo sapiens) | > 8.52 |
| CC(CCCNC(=O)c1cnc(-c2cscn2)c(F)c1)Nc1cn[nH]c(=O)c1C(F)(F)F (centres unmarked) [Example 178] | PARP7 (Homo sapiens) | > 8.52 |

----------
System: NCI-H1373 cells
assay-explanation: Inhibition on NCI-H1373 cell proliferation (Cell-Titer-Glo)
Assay type: cell-based
condition-description: Homo sapiens, 144 h; NCI-H1373 cells, incubation for 6 days, Cell-Titer-Glo; read-out: NCI-H1373 cell proliferation inhibition IC50
pIC50: −log10 of the molar value.
quantity-kind: pIC50

| compound | quantity-kind | result |
| --- | --- | --- |
| Cc1cc(=O)n(C)nc1-c1ccc(C(=O)NCCCC(C)Nc2cn[nH]c(=O)c2C(F)(F)F)cc1 (stereo not shown) [Example 66] | pIC50 | < 5.52 |
| N#C[C@@H]1CCN(C(=O)[C@@H](CCCNC(=O)c2ccc(-c3ncc(C(F)(F)F)s3)cc2)Nc2cn[nH]c(=O)c2C(F)(F)F)C1 [Example 239] | pIC50 | 6.00 to 6.52 |
| CC(CCCNC(=O)c1ccc(-c2ncc(N3CC(F)C3)cn2)cc1)Nc1cn[nH]c(=O)c1C(F)(F)F (stereo not shown) [Example 20] | pIC50 | 5.52 to 6.00 |
| C[C@@H](CCCNC(=O)c1ccc(-c2nccs2)cn1)Nc1cn[nH]c(=O)c1C(F)(F)F [Example 46] | pIC50 | < 5.52 |

----------
target-desc: PARP7 (Homo sapiens, UniProt Q7Z3E1)
Construct: purchased BPS 80527
assay-explanation: Inhibition of the compound on PARP7 protein activity (ADP-ribosylation, chemiluminescence)
Format: biochemical
condition-description: Histone H1 coated plate, Biotin-Labeled NAD+, 2 h at room temperature, chemiluminescence; read-out: PARP7 activity inhibition IC50
This listing pairs molecules with measured IC50.

| molecule | IC50 |
| --- | --- |
| CC(CCCNC(=O)c1ccc(-c2ncc(C(F)(F)F)cn2)cc1F)Nc1cn[nH]c(=O)c1C(F)(F)F (stereo not drawn) | < 3 nM |
| CC(CCCNC(=O)c1ccc(-n2cc(C(F)(F)F)cn2)nc1)Nc1cn[nH]c(=O)c1C(F)(F)F (stereo not drawn) | < 3 nM |
| CC(CCCNC(=O)c1ccc(-n2cccn2)nc1)Nc1cn[nH]c(=O)c1C(F)(F)F (stereo not drawn) | 3 to 10 nM |

----------
target-desc: PARP7 (Homo sapiens, UniProt Q7Z3E1)
Construct: purchased BPS 80527
Sequence (Q7Z3E1 1-657): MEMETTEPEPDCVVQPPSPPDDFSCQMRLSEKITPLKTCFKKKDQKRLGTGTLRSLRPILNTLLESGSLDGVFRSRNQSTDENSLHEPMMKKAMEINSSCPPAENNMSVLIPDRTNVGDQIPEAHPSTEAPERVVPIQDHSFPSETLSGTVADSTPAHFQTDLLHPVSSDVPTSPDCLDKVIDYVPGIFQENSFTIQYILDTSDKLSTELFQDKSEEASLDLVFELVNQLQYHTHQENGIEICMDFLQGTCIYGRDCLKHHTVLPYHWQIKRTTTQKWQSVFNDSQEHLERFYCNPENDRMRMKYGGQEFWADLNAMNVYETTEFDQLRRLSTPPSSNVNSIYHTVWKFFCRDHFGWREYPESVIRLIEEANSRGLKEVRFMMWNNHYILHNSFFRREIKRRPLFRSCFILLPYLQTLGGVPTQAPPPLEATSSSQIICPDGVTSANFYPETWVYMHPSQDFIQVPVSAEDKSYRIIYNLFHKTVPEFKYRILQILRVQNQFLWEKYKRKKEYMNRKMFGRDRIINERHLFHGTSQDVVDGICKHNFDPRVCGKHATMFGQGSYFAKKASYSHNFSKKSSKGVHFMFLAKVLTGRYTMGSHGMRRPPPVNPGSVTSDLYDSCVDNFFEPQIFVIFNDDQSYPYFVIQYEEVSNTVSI
assay-explanation: Inhibition of the compound on PARP7 protein activity (ADP-ribosylation, chemiluminescence)
Type: biochemical
condition-description: Histone H1 coated plate, Biotin-Labeled NAD+, 2 h at room temperature, chemiluminescence; read-out: PARP7 activity inhibition IC50
# maps each entry to its IC50
quantity-kind: IC50

| compound | result |
| --- | --- |
| CC(CCCNC(=O)c1ccc(-c2ncc(C(F)(F)F)s2)cc1)Nc1cn[nH]c(=O)c1C(F)(F)F (stereo not drawn) [Example 17] | < 3 nM |
| CC(CCCNC(=O)c1cccc2c1CCN2c1ncc(C(F)(F)F)cn1)Nc1cn[nH]c(=O)c1C(F)(F)F (stereo not drawn) [Example 5] | < 3 nM |
| CC(CCCNC(=O)c1ccc(-n2cccn2)c(F)c1)Nc1cn[nH]c(=O)c1C(F)(F)F (stereo not drawn) [Example 62] | 30 to 100 nM |
| Cc1cnc(-c2cnc(C(=O)NCCCC(C)Nc3cc[nH]c(=O)c3C(F)(F)F)cn2)s1 (stereo not drawn) [Example 30] | 3 to 10 nM |
| O=C(CCc1c[nH]c(=O)c(C(F)(F)F)c1N1CC2(CCC2)C1)Nc1ccc(-c2ncc(C(F)(F)F)s2)cn1 [Example 69] | < 3 nM |
| CC(CCCNC(=O)c1ccc(-c2ncc(N3CC(F)C3)cn2)cc1)Nc1cn[nH]c(=O)c1C(F)(F)F (stereo not drawn) [Example 20] | < 3 nM |

----------
target-desc: PARP7 (Homo sapiens)
Construct: purchased BPS 80527
assay-explanation: PARP7 TR-FRET binding inhibition (displacement of probe RBN011147)
condition-description: TR-FRET, Biotin-labeled probe RBN011147; read-out: PARP7 binding inhibition IC50

| compound | IC50 |
| --- | --- |
| CC(CCCNC(=O)c1ccc(-c2ncc(N(C)C)cn2)cc1)Nc1cn[nH]c(=O)c1C(F)(F)F (centres unmarked) | < 0.01 µM |
| CC(CCCNC(=O)c1ccc(-c2nn(C)cc2F)cc1)Nc1cn[nH]c(=O)c1C(F)(F)F (centres unmarked) | 0.03 to 0.1 µM |
| CC(CCCNC(=O)c1ncc(-c2ncc(C(F)(F)F)cn2)s1)Nc1cn[nH]c(=O)c1C(F)(F)F (centres unmarked) | 0.03 to 0.1 µM |
| CC(CCCNC(=O)c1ccc(-n2cccn2)c(F)c1)Nc1cn[nH]c(=O)c1C(F)(F)F (centres unmarked) | 0.03 to 0.1 µM |
| CC(CCCNC(=O)c1cnn(-c2ncc(C(F)(F)F)cn2)c1)Nc1cn[nH]c(=O)c1C(F)(F)F (centres unmarked) | < 0.01 µM |
| CC(CC1CN(C(=O)c2ccc(-n3cc(C(F)(F)F)cn3)cc2)C1)Nc1cn[nH]c(=O)c1C(F)(F)F (centres unmarked) | > 0.1 µM |
| CC(CCCNC(=O)c1cnc(-c2ncc(C(F)(F)F)cn2)cn1)Oc1cn[nH]c(=O)c1C(F)(F)F (centres unmarked) | 0.03 to 0.1 µM |
| CC(CCCNC(=O)c1cnc(-c2ncc(C(F)(F)F)s2)c(F)c1)Nc1cn[nH]c(=O)c1C(F)(F)F (centres unmarked) | < 0.01 µM |
| CC1(C)CN(C(=O)C(CCCNC(=O)c2cnc(-c3ncc(C(F)(F)F)cn3)cn2)Nc2cn[nH]c(=O)c2C(F)(F)F)C1 (centres unmarked) | 0.01 to 0.03 µM |
| CC(CCCNC(=O)c1ccc(-c2ncc(C(F)(F)F)s2)cn1)Nc1cn[nH]c(=O)c1C(F)(F)F (centres unmarked) | 0.01 to 0.03 µM |
| N#CC1CCN(C(=O)C(CCCNC(=O)c2ccc(-c3ncc(C(F)(F)F)s3)cc2)Nc2cn[nH]c(=O)c2C(F)(F)F)C1 (centres unmarked) | 0.03 to 0.1 µM |
| O=C(NCCCC(Nc1cn[nH]c(=O)c1C(F)(F)F)C(=O)N1CCCC1)c1ccc(-c2ncc(C(F)(F)F)cn2)cc1 (centres unmarked) | 0.01 to 0.03 µM |
| CC(CCCNC(=O)c1ccc(-c2cc(C(F)(F)F)sn2)nc1)Nc1cn[nH]c(=O)c1C(F)(F)F (centres unmarked) | 0.01 to 0.03 µM |
| Cc1cc(=O)n(C)nc1-c1ccc(C(=O)NCCCC(C)Nc2cn[nH]c(=O)c2C(F)(F)F)cc1 (centres unmarked) | > 0.1 µM |
| CC(CCCNC(=O)c1cnc(-c2ncc(C(F)(F)F)cn2)cn1)Nc1cn[nH]c(=O)c1C(F)(F)F (centres unmarked) | < 0.01 µM |
| CC(CCCNC(=O)c1ccc(-c2ncc(C(F)F)s2)cn1)Nc1cc[nH]c(=O)c1C(F)(F)F (centres unmarked) | 0.01 to 0.03 µM |
| CC(CCCN1C(=O)c2ccc(-c3ncc(C(F)(F)F)cn3)cc2C1=O)Nc1cn[nH]c(=O)c1C(F)(F)F (centres unmarked) | < 0.01 µM |
